Would you kindly list Soil treatment phytotoxicity, Soybean for each of these compounds?
system: soybean; experiment: Phytotoxicity test for field crops (soil treatment test); format: in vivo; design: key: 0 (no harm); 9 (complete withered); details: 100 g ai/ha; Soybean (20 days after treatment)
Reply: number alone, nothing else.

Task: Send back soybean Soil treatment phytotoxicity, Soybean of Cn1nnc(CSCc2nc(C(F)(F)F)ccc2C(=O)N(c2nnnn2C)S(C)(=O)=O)n1 only.
Result: 0

Task: Specify Soil treatment phytotoxicity, Soybean for CON(Cc1nnn(C)n1)c1nc(C(F)(F)F)ccc1C(=O)Nc1nnnn1C , system soybean.
Result: 7

Task: State recorded Soil treatment phytotoxicity, Soybean with soybean, entry Cn1nnc(COCc2nc(C(F)F)ccc2C(=O)Nc2nnnn2C)n1 , no comment.
Result: 0

Task: Report the value of Soil treatment phytotoxicity, Soybean obtained on soybean for Cn1nnnc1COc1nc(C(F)(F)F)ccc1C(=S)Nc1nnnn1C .
Result: 0

Task: Provide soybean Soil treatment phytotoxicity, Soybean reading for Cn1nc(COCc2nc(C(F)(F)F)ccc2C(=O)Nc2nnnn2C)nc1C#N .
Result: 0

Task: Param request: Soil treatment phytotoxicity, Soybean | system soybean | item Cn1ncnc1COc1nc(C(F)(F)F)ccc1C(=O)Nc1nnnn1C
Result: 0

---

system: sorghum; experiment: Herbicidal activity test against upland field weeds (foliar treatment test); format: in vivo; design: key: 0 (no control); 100 (complete control); conditions: 50 g ai/ha, scale 0-100
For each of the compounds below, state its Foliar treatment herbicidal activity, Sorghum.
# print the numeric value only

Task: Give the reported value of Foliar treatment herbicidal activity, Sorghum for this record: CCCn1nnnc1NC(=O)c1ccc(C(F)(F)F)nc1COCc1ncn(C)n1
Result: 0

Task: Kindly indicate its recorded Foliar treatment herbicidal activity, Sorghum. Item: Cn1nnc(C[S+]([O-])Cc2nc(C(F)F)ccc2C(=O)Nc2nnnn2C)n1 (centres unmarked)
Result: 70

Task: Find the measured Foliar treatment herbicidal activity, Sorghum of CCn1nnc(COCc2nc(C(F)(F)F)ccc2C(=O)Nc2nnnn2CC)n1 and report it.
Result: 0

Task: Determine from records and report Foliar treatment herbicidal activity, Sorghum for CC(OC(=O)OC1CCCCC1)N(C(=O)c1ccc(C(F)(F)F)nc1COCc1nnn(C)n1)c1nnnn1C (centres unmarked)
Result: 60

Task: Using the record for Cn1nc(COCc2nc(C(F)(F)F)ccc2C(=O)Nc2nnnn2C)nc1I , state its measured Foliar treatment herbicidal activity, Sorghum.
Result: 60

Task: Please give the documented Foliar treatment herbicidal activity, Sorghum of CN(C(=O)c1ccc(C(F)(F)F)nc1OCc1nnnn1C(F)F)c1nnnn1C
Result: 0

Task: Give the value of Foliar treatment herbicidal activity, Sorghum reported for the following: CCn1nnc(COCc2nc(C(F)(F)F)ccc2C(=O)Nc2nnnn2C)n1
Result: 0

Task: Return reported Foliar treatment herbicidal activity, Sorghum. Input compound: Cn1nnnc1NC(=O)c1ccc(C(F)(F)F)nc1COCc1nc(C(F)F)n(C)n1
Result: 70

---

test system: rice; test: Phytotoxicity test for upland field crops (foliar treatment test); type: in vivo; set-up: key: 0 (no harm); 9 (complete withered); conditions: 100 g ai/ha, Rice (14 days after treatment)
Kindly supply the reported Foliar treatment phytotoxicity, Rice values for the records listed here.
No unit in the answer, please; the number alone is enough.

Task: Provide Foliar treatment phytotoxicity, Rice value for the following compound: Cn1nnc(COCc2nc(C(F)F)ccc2C(=O)Nc2nnnn2C)n1 [Compound No. 2-84]
Result: 9

Task: Please report Foliar treatment phytotoxicity, Rice for the following compound: Cn1nnc(COc2nc(C(F)(F)F)ccc2C(=O)Nc2nnnn2C)n1 [Compound No. 2-1]
Result: 4

Task: Give me measured Foliar treatment phytotoxicity, Rice, please, for this compound: Cn1nnc(COCc2nc(C(F)(F)C(F)(F)F)ccc2C(=O)Nc2nnnn2C)n1 [Compound No. 2-81]
Result: 5

Task: Respond only with Foliar treatment phytotoxicity, Rice recorded for Cn1nnnc1NC(=O)c1ccc(C(F)(F)F)nc1Sc1nnnn1C [Compound No. 1-40]
Result: 1

Task: Identify measured Foliar treatment phytotoxicity, Rice associated with Cn1nc(COCc2nc(C(F)(F)F)ccc2C(=O)Nc2nnnn2C)nc1Br [Compound No. 2-136]
Result: 7

Task: Specify Foliar treatment phytotoxicity, Rice for Cn1nc(COCc2nc(C(F)(F)F)ccc2C(=O)Nc2nnnn2C)nc1C#N [Compound No. 2-134] and stop.
Result: 7

Task: Read off the recorded Foliar treatment phytotoxicity, Rice for COC(=O)OC(C)N(C(=O)c1ccc(C(F)(F)F)nc1COCc1ncn(C)n1)c1nnnn1C (stereo not shown) [Compound No. 4-1]
Result: 7

Task: Specify Foliar treatment phytotoxicity, Rice for Cn1nnc(COCc2nc(C(F)(F)F)ccc2C(=O)Nc2nnnn2C)n1 [Compound No. 2-59] and stop.
Result: 6

Task: Tell me its Foliar treatment phytotoxicity, Rice given Cn1nnnc1COCc1nc(C(F)(F)F)ccc1C(=O)Nc1nnnn1C [Compound No. 1-61] as the entry.
Result: 6

Task: Note Foliar treatment phytotoxicity, Rice for the compound shown: Cn1nnc(COCc2nc(C(F)(F)F)ccc2C(=O)N(C(=O)c2ccccc2)c2nnnn2C)n1 [Compound No. 2-68]
Result: 8

---

Assign Foliar treatment phytotoxicity, Corn to each entry below.
tested on: corn; test: Phytotoxicity test for upland field crops (foliar treatment test); format: in vivo; conditions: 100 g ai/ha, Corn (14 days after treatment)

Task: Output reported Foliar treatment phytotoxicity, Corn of the compound Cn1ncnc1COc1nc(C(F)(F)F)ccc1C(=O)Nc1nnnn1C on corn.
Result: 2

Task: Find the measured Foliar treatment phytotoxicity, Corn of Cn1nnnc1NC(=O)c1ccc(C(F)(F)F)nc1COCc1nc(C(F)F)n(C)n1 with corn as test system.
Result: 4

Task: Return reported Foliar treatment phytotoxicity, Corn for target or system corn, item C=CCn1nnnc1NC(=O)c1ccc(C(F)(F)F)nc1COCc1nc(C(F)F)n(C)n1 .
Result: 1

Task: Lab note: record Foliar treatment phytotoxicity, Corn of CCCn1nnnc1NC(=O)c1ccc(C(F)(F)F)nc1COCc1nc(C(F)F)n(C)n1 tested on corn.
Result: 2

Task: Provide measured Foliar treatment phytotoxicity, Corn on corn for COC(=O)OC(C)N(C(=O)c1ccc(C(F)(F)F)nc1COCc1ncn(C)n1)c1nnnn1C (centres unmarked) please.
Result: 0

Task: Please report Foliar treatment phytotoxicity, Corn with corn for item COc1nc(COCc2nc(C(F)(F)F)ccc2C(=O)Nc2nnnn2C)nn1C .
Result: 0

Task: Please report Foliar treatment phytotoxicity, Corn with corn for item CCn1nnc(COCc2nc(C(F)(F)F)ccc2C(=O)Nc2nnnn2CC)n1 .
Result: 0

Task: Fill in Foliar treatment phytotoxicity, Corn for CCn1nnc(COCc2nc(C(F)(F)F)ccc2C(=O)Nc2nnnn2C)n1 tested with corn.
Result: 0

Task: Enter Foliar treatment phytotoxicity, Corn (test system corn) for Cn1nnc(COCc2nc(C(F)(F)Cl)ccc2C(=O)Nc2nnnn2C)n1
Result: 1

Task: Report the value of Foliar treatment phytotoxicity, Corn obtained on corn for Cn1nnc(CSCc2nc(C(F)(F)F)ccc2C(=O)N(C(=O)c2ccccc2)c2nnnn2C)n1 .
Result: 0

Task: Name the recorded Foliar treatment phytotoxicity, Corn of CCOC(=O)OC(C)N(C(=O)c1ccc(C(F)(F)F)nc1COCc1nnn(C)n1)c1nnnn1C (centres unmarked) , assay system corn.
Result: 0

---

test system: black nightshade; assay: Herbicidal activity test against upland field weeds (soil treatment test); type: in vivo; design: key: 0 (no control); 100 (complete control); settings: 50 g ai/ha, scale 0 (no control) to 100 (complete control)
I'd appreciate it if you could supply Soil treatment herbicidal activity, black nightshade values for the items below.
Answer with a number only.

Task: # return recorded Soil treatment herbicidal activity, black nightshade for entry CN(Cc1nnnn1C)c1nc(C(F)(F)F)ccc1C(=O)Nc1nnnn1C [Compound No. 1-27]
Result: 100

Task: Find the measured Soil treatment herbicidal activity, black nightshade of Cn1cnc(COCc2nc(C(F)F)ccc2C(=O)Nc2nnnn2C)n1 [Compound No. 2-85] and report it.
Result: 93

Task: Using the record for CON(Cc1nnn(C)n1)c1nc(C(F)(F)F)ccc1C(=O)Nc1nnnn1C [Compound No. 2-30] , state its measured Soil treatment herbicidal activity, black nightshade.
Result: 100

Task: Let me know recorded Soil treatment herbicidal activity, black nightshade for CN(C(=O)c1ccc(C(F)(F)F)nc1OCc1nnnn1C(F)F)c1nnnn1C [Compound No. 1-8] , thanks.
Result: 0

Task: Identify Soil treatment herbicidal activity, black nightshade associated with the compound Cn1cnc(COCc2nc(C(F)(F)C(F)(F)F)ccc2C(=O)Nc2nnnn2C)n1 [Compound No. 2-83]
Result: 100

Task: Specify measured Soil treatment herbicidal activity, black nightshade for CCON(Cc1nnn(C)n1)c1nc(C(F)(F)F)ccc1C(=O)Nc1nnnn1C [Compound No. 2-31] .
Result: 100

Task: Return Soil treatment herbicidal activity, black nightshade (reported value) for this compound: Cn1nnnc1COc1nc(C(F)(F)F)ccc1C(=O)Nc1nnnn1C [Compound No. 1-1]
Result: 100

Task: Please give the documented Soil treatment herbicidal activity, black nightshade of Cn1nnc(CSCc2nc(C(F)(F)F)ccc2C(=O)N(C(=O)c2ccccc2)c2nnnn2C)n1 [Compound No. 2-109]
Result: 100

Values compiled from patent US12495798B2.
